assay: Inhibition of bovine brain tubulin polymerization after 20 mins; set-up: species or system Bos taurus
Measured IC50, listed per entry.
quantity_name: IC50

>>> print(df.to_string())
                            compound_smiles  quantity_name  observed
0  COc1ccc2c(C(=O)c3cc(OC)c(OC)c(OC)c3)c(-c3ccc(OC)c(OP(=O)(O)O)c3)n(C)c2c1           IC50   > 20 µM
1  COc1ccc2c(C(=O)c3cc(OC)c(OC)c(OC)c3)c(-c3ccc(OC)c(O)c3)n(C)c2c1           IC50   > 20 µM
2  COc1ccc2c(C(=O)c3cc(OC)c(OC)c(OC)c3)c(-c3ccc(OC)c(OP(=O)(O)O)c3)[nH]c2c1           IC50    4.2 µM
